Tested on: S. aureus 19
Experiment: microbe, parasite or virus in culture
Format: cell-based, Staphylococcus aureus
Conditions: 19
Text: The same MIC assay as in Example 6 was used to determine the antimicrobial susceptibility of Compound A, L-form (FIG. 15), and several variants. One variant was Compound A, D-form, with D-Lysine at position 7. Compound B is a variant in the fatty acid chain, with a fatty acid chain composition of C15H29O, and having D-Lys at position 7. Compound C is a variant in the fatty acid chain with a fatty acid chain composition of C11H21O, and having D-Lys at position 7. […]
Where a SMILES comes first, the peptide text is derived from it. Bridges are numbered along the chain shown (N, C = ends). [ ]: non-standard residue; d: D form. The star is where a group is joined. Pentadecanoyl = CCCCCCCCCCCCCCC(=O)*; dOrn = NCCC[C@@H](N)C(=O)O
EXPERIMENTAL_READOUT: MIC
Please answer in the form of a number followed by its unit of measurement.

[ask] // returns reported MIC for input CCCCCCCCCCCCCCC(=O)N[C@H](CCCN)C(=O)N[C@H](C(=O)N[C@@H]1C(=O)N[C@H](CCCN)C(=O)N[C@@H](CO)C(=O)N[C@@H](Cc2ccc(O)cc2)C(=O)N[C@H](CCCCN)C(=O)N[C@H](CO)C(=O)N[C@@H]([C@@H](C)CC)C(=O)N2CCC[C@H]2C(=O)N[C@@H]([C@@H](C)CC)C(=O)N2CCC[C@H]2C(=O)N[C@@H]([C@@H](C)CC)C(=O)O[C@@H]1C)C(C)C [Compound B] (Pentadecanoyl-[dOrn]VT[dOrn]SY[dK][dS]IPIPI; ester 3-C; N-terminus assumed)
[reply] 4 µg/mL

* * *

I'd appreciate it if you could supply MIC values for the items below.
System: E. coli CVM 40128 (oxa-7)
Type: cell-based, Escherichia coli
Where a SMILES comes first, the peptide text is derived from it. Bridges are numbered along the chain shown (N, C = ends). [ ]: non-standard residue; d: D form. The star is where a group is joined. Pentadecanoyl = CCCCCCCCCCCCCCC(=O)*; Undecanoyl = CCCCCCCCCCC(=O)*; dOrn = NCCC[C@@H](N)C(=O)O
Write the answer as a number in µg/mL, unit excluded.

[ask] Fill blank: measured MIC of the compound CCCCCCCCCCC(=O)N[C@H](CCCN)C(=O)N[C@H](C(=O)N[C@@H]1C(=O)N[C@H](CCCN)C(=O)N[C@@H](CO)C(=O)N[C@@H](Cc2ccc(O)cc2)C(=O)N[C@H](CCCCN)C(=O)N[C@H](CO)C(=O)N[C@@H]([C@@H](C)CC)C(=O)N2CCC[C@H]2C(=O)N[C@@H]([C@@H](C)CC)C(=O)N2CCC[C@H]2C(=O)N[C@@H]([C@@H](C)CC)C(=O)O[C@@H]1C)C(C)C [Compound C] (Undecanoyl-[dOrn]VT[dOrn]SY[dK][dS]IPIPI; ester 3-C; N-terminus assumed) is ____.
[reply] 8

[ask] For CCCCCCCCCCCCCCC(=O)N[C@H](CCCN)C(=O)N[C@H](C(=O)N[C@@H]1C(=O)N[C@H](CCCN)C(=O)N[C@@H](CO)C(=O)N[C@@H](Cc2ccc(O)cc2)C(=O)N[C@H](CCCCN)C(=O)N[C@H](CO)C(=O)N[C@@H]([C@@H](C)CC)C(=O)N2CCC[C@H]2C(=O)N[C@@H]([C@@H](C)CC)C(=O)N2CCC[C@H]2C(=O)N[C@@H]([C@@H](C)CC)C(=O)O[C@@H]1C)C(C)C [Compound B] (Pentadecanoyl-[dOrn]VT[dOrn]SY[dK][dS]IPIPI; ester 3-C; N-terminus assumed) , what is its reported MIC?
[reply] 8

* * *

Tested on: E. coli CVM 40126 (oxa-1)
Type: cell-based, Escherichia coli
Where a SMILES comes first, the peptide text is derived from it. Bridges are numbered along the chain shown (N, C = ends). [ ]: non-standard residue; d: D form. The star is where a group is joined. Pentadecanoyl = CCCCCCCCCCCCCCC(=O)*; Tridecanoyl = CCCCCCCCCCCCC(=O)*; Undecanoyl = CCCCCCCCCCC(=O)*; dOrn = NCCC[C@@H](N)C(=O)O
EXPERIMENTAL_READOUT: MIC (µg/mL)
Give the number; µg/mL is assumed, so skip it.

[ask] Quick check: MIC of CCCCCCCCCCCCC(=O)N[C@H](CCCN)C(=O)N[C@H](C(=O)N[C@@H]1C(=O)N[C@H](CCCN)C(=O)N[C@@H](CO)C(=O)N[C@@H](Cc2ccccc2)C(=O)N[C@H](CCCCN)C(=O)N[C@H](CO)C(=O)N[C@@H]([C@@H](C)CC)C(=O)N2CCC[C@H]2C(=O)N[C@@H]([C@@H](C)CC)C(=O)N2CCC[C@H]2C(=O)N[C@@H]([C@@H](C)CC)C(=O)O[C@@H]1C)C(C)C [Variant D] (Tridecanoyl-[dOrn]VT[dOrn]SF[dK][dS]IPIPI; ester 3-C; N-terminus assumed) ?
[reply] 8

[ask] Recorded MIC of CCCCCCCCCCCCC(=O)N[C@H](CCCN)C(=O)N[C@H](C(=O)N[C@@H]1C(=O)N[C@H](CCCN)C(=O)N[C@@H](CO)C(=O)N[C@@H](Cc2ccc(O)cc2)C(=O)N[C@H](CCCCN)C(=O)N[C@H](CO)C(=O)N[C@@H]([C@@H](C)CC)C(=O)N2CCC[C@H]2C(=O)N[C@@H]([C@@H](C)CC)C(=O)N2CCC[C@H]2C(=O)N[C@@H]([C@@H](C)CC)C(=O)O[C@@H]1C)C(C)C [Compound A D-form] (Tridecanoyl-[dOrn]VT[dOrn]SY[dK][dS]IPIPI; ester 3-C) , please.
[reply] 8

[ask] What value of measured MIC is listed for CCCCCCCCCCC(=O)N[C@H](CCCN)C(=O)N[C@H](C(=O)N[C@@H]1C(=O)N[C@H](CCCN)C(=O)N[C@@H](CO)C(=O)N[C@@H](Cc2ccc(O)cc2)C(=O)N[C@H](CCCCN)C(=O)N[C@H](CO)C(=O)N[C@@H]([C@@H](C)CC)C(=O)N2CCC[C@H]2C(=O)N[C@@H]([C@@H](C)CC)C(=O)N2CCC[C@H]2C(=O)N[C@@H]([C@@H](C)CC)C(=O)O[C@@H]1C)C(C)C [Compound C] (Undecanoyl-[dOrn]VT[dOrn]SY[dK][dS]IPIPI; ester 3-C; N-terminus assumed) ?
[reply] 8

[ask] Which MIC reading was recorded for the molecule CCCCCCCCCCCCC(=O)N[C@H](CCCN)C(=O)N[C@H](C(=O)N[C@@H]1C(=O)N[C@H](CCCN)C(=O)N[C@@H](CO)C(=O)N[C@@H](Cc2ccc(O)cc2)C(=O)N[C@@H](CCCCN)C(=O)N[C@H](CO)C(=O)N[C@@H]([C@@H](C)CC)C(=O)N2CCC[C@H]2C(=O)N[C@@H]([C@@H](C)CC)C(=O)N2CCC[C@H]2C(=O)N[C@@H]([C@@H](C)CC)C(=O)O[C@@H]1C)C(C)C [Compound A L-form] (Tridecanoyl-[dOrn]VT[dOrn]SYK[dS]IPIPI; ester 3-C) ?
[reply] 4

[ask] Which measured MIC value corresponds to CCCCCCCCCCCCCCC(=O)N[C@H](CCCN)C(=O)N[C@H](C(=O)N[C@@H]1C(=O)N[C@H](CCCN)C(=O)N[C@@H](CO)C(=O)N[C@@H](Cc2ccc(O)cc2)C(=O)N[C@H](CCCCN)C(=O)N[C@H](CO)C(=O)N[C@@H]([C@@H](C)CC)C(=O)N2CCC[C@H]2C(=O)N[C@@H]([C@@H](C)CC)C(=O)N2CCC[C@H]2C(=O)N[C@@H]([C@@H](C)CC)C(=O)O[C@@H]1C)C(C)C [Compound B] (Pentadecanoyl-[dOrn]VT[dOrn]SY[dK][dS]IPIPI; ester 3-C; N-terminus assumed) ?
[reply] 4

* * *

Test system: E. faecium ATCC 700221
Experiment: microbe, parasite or virus in culture
Assay type: cell-based
Details: ATCC 700221
Where a SMILES comes first, the peptide text is derived from it. Bridges are numbered along the chain shown (N, C = ends). [ ]: non-standard residue; d: D form. The star is where a group is joined. Tridecanoyl = CCCCCCCCCCCCC(=O)*; dOrn = NCCC[C@@H](N)C(=O)O
EXPERIMENTAL_READOUT: MIC (µg/mL)
The figure you give is taken to be in µg/mL; do not add the unit.

[ask] For the compound CCCCCCCCCCCCC(=O)N[C@H](CCCN)C(=O)N[C@H](C(=O)N[C@@H]1C(=O)N[C@H](CCCN)C(=O)N[C@@H](CO)C(=O)N[C@@H](Cc2ccc(O)cc2)C(=O)N[C@@H](CCCCN)C(=O)N[C@H](CO)C(=O)N[C@@H]([C@@H](C)CC)C(=O)N2CCC[C@H]2C(=O)N[C@@H]([C@@H](C)CC)C(=O)N2CCC[C@H]2C(=O)N[C@@H]([C@@H](C)CC)C(=O)O[C@@H]1C)C(C)C [Compound A L-form] (Tridecanoyl-[dOrn]VT[dOrn]SYK[dS]IPIPI; ester 3-C) , what MIC is on record?
[reply] 4
